The values you see were collected from patent US9085603B2.

# targetEntity: human progesterone receptor B (Homo sapiens)
# Sequence (P06401 whole entry): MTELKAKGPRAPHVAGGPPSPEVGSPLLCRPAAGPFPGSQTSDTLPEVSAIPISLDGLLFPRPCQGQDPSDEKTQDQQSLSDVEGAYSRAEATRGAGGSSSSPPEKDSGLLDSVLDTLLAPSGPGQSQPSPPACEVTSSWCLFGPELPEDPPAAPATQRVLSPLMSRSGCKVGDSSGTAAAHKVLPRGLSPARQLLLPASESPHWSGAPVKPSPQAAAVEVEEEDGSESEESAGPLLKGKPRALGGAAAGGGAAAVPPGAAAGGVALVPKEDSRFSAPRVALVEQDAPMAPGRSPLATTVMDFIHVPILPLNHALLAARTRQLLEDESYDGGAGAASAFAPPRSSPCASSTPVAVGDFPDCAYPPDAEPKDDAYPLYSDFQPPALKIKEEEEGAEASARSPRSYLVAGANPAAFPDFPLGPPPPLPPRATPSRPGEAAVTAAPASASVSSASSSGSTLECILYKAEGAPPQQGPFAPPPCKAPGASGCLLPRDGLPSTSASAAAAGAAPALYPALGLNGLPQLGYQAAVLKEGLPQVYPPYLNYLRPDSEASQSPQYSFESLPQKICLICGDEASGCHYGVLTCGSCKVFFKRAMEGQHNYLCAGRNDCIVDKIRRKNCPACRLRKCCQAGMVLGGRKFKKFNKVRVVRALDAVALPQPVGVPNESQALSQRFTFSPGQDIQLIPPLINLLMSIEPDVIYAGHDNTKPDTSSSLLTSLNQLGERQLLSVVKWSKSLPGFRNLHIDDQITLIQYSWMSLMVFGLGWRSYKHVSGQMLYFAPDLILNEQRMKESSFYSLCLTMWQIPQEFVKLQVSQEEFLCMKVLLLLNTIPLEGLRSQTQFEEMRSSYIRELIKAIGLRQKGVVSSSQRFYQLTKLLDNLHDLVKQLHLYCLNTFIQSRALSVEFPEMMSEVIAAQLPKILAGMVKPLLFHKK
# experimentDescription: Progesterone receptor antagonistic effect in stably transfected SK-N-MC cells, MTV-LUC reporter (PR-B)
# conditionDescription: antagonism of 0.1 nmol/l promegestone, luciferase reporter, 24 hours
Overview of recorded pIC50 for various compounds
Units for pIC50: none; it is -log10 of a concentration expressed in mol/L.

Asked: Please look up its pIC50: CC(C)(C)C(=O)N1CCN(Cc2ccc([C@H]3C[C@@]4(C)C(CC[C@@]4(O)C(F)(F)C(F)(F)F)C4CCC5=CC(=O)CCC5=C43)cc2)CC1 (stereo partly drawn)
Given back: 10.03

Next:
Asked: Please look up its pIC50: CC(=O)N1CCN(Cc2ccc([C@H]3C[C@@]4(C)C(CC[C@@]4(O)C(F)(F)C(F)(F)F)C4CCC5=CC(=O)CCC5=C43)cc2)CC1 (stereo partly drawn)
Given back: 10.02

Asked: Please look up its pIC50: "C[C@]12C[C@H](c3ccc(CN4CCNCC4)cc3)C3=C4CCC(=O)C=C4CC[C@H]3[C@@H]1CC[C@@]2(O)C(F)(F)C(F)(F)F"
Given back: 9.92

* * *

# targetEntity: human progesterone receptor A (Homo sapiens, UniProt P06401)
# Sequence (P06401 165-933): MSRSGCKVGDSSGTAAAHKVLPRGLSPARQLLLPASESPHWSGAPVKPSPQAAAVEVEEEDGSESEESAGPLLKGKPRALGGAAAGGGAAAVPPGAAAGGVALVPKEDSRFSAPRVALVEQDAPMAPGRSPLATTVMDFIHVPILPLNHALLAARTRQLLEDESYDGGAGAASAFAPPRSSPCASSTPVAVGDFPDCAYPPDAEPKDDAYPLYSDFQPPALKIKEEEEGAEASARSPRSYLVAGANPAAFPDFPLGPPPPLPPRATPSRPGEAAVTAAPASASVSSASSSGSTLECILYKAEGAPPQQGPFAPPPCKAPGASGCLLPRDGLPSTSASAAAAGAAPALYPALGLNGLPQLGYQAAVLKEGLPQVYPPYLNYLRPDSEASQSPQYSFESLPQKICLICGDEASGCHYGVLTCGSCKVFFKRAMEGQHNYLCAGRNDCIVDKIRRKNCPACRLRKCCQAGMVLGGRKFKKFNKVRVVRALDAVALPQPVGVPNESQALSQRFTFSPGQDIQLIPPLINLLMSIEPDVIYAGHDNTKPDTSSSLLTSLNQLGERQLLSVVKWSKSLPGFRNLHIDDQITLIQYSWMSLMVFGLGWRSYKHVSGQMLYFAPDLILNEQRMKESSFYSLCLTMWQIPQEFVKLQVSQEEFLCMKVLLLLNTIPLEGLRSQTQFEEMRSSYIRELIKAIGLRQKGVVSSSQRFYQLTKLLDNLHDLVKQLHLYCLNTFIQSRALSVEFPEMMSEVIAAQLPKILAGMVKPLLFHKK
# experimentDescription: Progesterone receptor antagonistic effect in stably transfected SK-N-MC cells, MTV-LUC reporter (PR-A)
# conditionDescription: antagonism of 0.1 nmol/l promegestone, luciferase reporter, 24 hours
outcomeMeasure: IC50
Don't forget the unit after the value.

Solved entries (count: 4):
Asked: IC50 of "C[C@]12C[C@H](c3ccc(CNc4cccnc4)cc3)C3=C4CCC(=O)C=C4CC[C@H]3[C@@H]1CC[C@@]2(O)C(F)(F)C(F)(F)F" on human progesterone receptor A (Homo sapiens, UniProt P06401)?
Given back: 0.94 nM

Asked: IC50 of "CNC(=O)CN1CCN(Cc2ccc([C@H]3C[C@@]4(C)[C@@H](CC[C@@]4(O)C(F)(F)C(F)(F)F)[C@@H]4CCC5=CC(=O)CCC5=C43)cc2)CC1" on human progesterone receptor A (Homo sapiens, UniProt P06401)?
Given back: 1.65 nM

Asked: IC50 of "COC(=O)c1ccc(NCc2ccc([C@H]3C[C@@]4(C)[C@@H](CC[C@@]4(O)C(F)(F)C(F)(F)F)[C@@H]4CCC5=CC(=O)CCC5=C43)cc2)cc1" on human progesterone receptor A (Homo sapiens, UniProt P06401)?
Given back: 1.19 nM

Asked: IC50 of "C[C@]12C[C@H](c3ccc(CNCCc4ccccc4)cc3)C3=C4CCC(=O)C=C4CC[C@H]3[C@@H]1CC[C@@]2(O)C(F)(F)C(F)(F)F" on human progesterone receptor A (Homo sapiens, UniProt P06401)?
Given back: 1.3 nM

Next molecule, IC50 to be filled in.
Asked: IC50 of "CN(Cc1ccc([C@H]2C[C@@]3(C)[C@@H](CC[C@@]3(O)C(F)(F)C(F)(F)F)[C@@H]3CCC4=CC(=O)CCC4=C32)cc1)c1ccccc1" on human progesterone receptor A (Homo sapiens, UniProt P06401)?
Given back: 1.28 nM

* * *

# targetEntity: human progesterone receptor A (Homo sapiens)
# experimentDescription: Progesterone receptor antagonistic effect in stably transfected SK-N-MC cells, MTV-LUC reporter (PR-A)
# conditionDescription: antagonism of 0.1 nmol/l promegestone, luciferase reporter, 24 hours
outcomeMeasure: IC50

Solved entries (count: 2):
Asked: Please look up its IC50: C[C@]12C[C@H](c3ccc(CNc4ccc(C(N)=O)cc4)cc3)C3=C4CCC(=O)C=C4CC[C@H]3[C@@H]1CC[C@@]2(O)C(F)(F)C(F)(F)F [Example 32]
Given back: 0.78 nM

Asked: Please look up its IC50: C[C@]12C[C@H](c3ccc(CN4CCN(c5cnccn5)CC4)cc3)C3=C4CCC(=O)C=C4CC[C@H]3[C@@H]1CC[C@@]2(O)C(F)(F)C(F)(F)F [Example 35]
Given back: 0.68 nM

Next compound, IC50 to be filled in.
Asked: Please look up its IC50: C[C@]12C[C@H](c3ccc(CN4CCN(c5ccncc5)CC4)cc3)C3=C4CCC(=O)C=C4CC[C@H]3[C@@H]1CC[C@@]2(O)C(F)(F)C(F)(F)F [Example 50]
Given back: 1.2 nM
